Where these numbers come from: patent US9139557B2

molecular target: calpain-I (Homo sapiens); construct: calpain-I—isolated from human erythrocytes; test: Calpain I enzyme inhibition in vitro (kinetic fluorescence assay)
Sequence (P07384 2-714 limits assumed): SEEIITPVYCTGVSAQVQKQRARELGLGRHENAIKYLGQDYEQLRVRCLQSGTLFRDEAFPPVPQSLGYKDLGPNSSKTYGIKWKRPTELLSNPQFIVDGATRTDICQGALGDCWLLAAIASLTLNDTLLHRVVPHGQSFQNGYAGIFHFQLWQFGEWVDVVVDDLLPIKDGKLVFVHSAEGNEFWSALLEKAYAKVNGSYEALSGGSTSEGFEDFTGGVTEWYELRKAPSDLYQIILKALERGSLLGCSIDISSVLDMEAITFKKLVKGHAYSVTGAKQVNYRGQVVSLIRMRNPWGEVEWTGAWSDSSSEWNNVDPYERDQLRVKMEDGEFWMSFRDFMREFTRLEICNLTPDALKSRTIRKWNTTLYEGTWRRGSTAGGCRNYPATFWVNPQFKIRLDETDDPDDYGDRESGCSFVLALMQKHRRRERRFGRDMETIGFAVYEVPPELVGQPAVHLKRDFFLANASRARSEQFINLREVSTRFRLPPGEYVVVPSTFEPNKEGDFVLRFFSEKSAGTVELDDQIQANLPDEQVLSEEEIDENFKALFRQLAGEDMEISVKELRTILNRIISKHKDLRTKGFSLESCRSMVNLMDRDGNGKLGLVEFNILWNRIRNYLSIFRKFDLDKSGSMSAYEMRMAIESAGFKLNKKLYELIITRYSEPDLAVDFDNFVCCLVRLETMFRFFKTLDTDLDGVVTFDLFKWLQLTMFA
Sequence (P04632 whole entry partner): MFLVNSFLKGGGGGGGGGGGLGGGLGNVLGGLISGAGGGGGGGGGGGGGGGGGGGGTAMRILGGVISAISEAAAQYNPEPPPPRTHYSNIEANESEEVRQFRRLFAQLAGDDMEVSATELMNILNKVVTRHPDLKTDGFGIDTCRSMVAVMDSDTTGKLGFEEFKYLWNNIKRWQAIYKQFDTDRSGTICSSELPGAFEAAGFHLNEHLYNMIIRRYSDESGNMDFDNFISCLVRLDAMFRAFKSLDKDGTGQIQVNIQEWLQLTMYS
MEASUREMENT_TYPE: Ki

The recorded Ki for entry Cl.NC(=O)C(=O)C(Cc1ccccc1)NC(=O)c1cccnc1-n1cnc(-c2ccc(CN3CCOCC3)cc2)c1 (stereo not shown) [Example 26, hydrochloride] equals < 40 nM
